Collected CC50 values appear next to each entry.
Assay: Functional metabolic assay to measure dose dependent changes in cell viability from drug treatment in HeLa-ACE2 cells. Hela-ACE2 cells are seeded prior to drug treatment, then incubated in MTT (3-[4,5-dimethylthiazol-2-yl]-2,5- diphenyltetrazolium bromide) labelling reagent and SDS. Absorbance is measured at 560 and 750 nm and analyzed by Gen5 software. The assay has been performed by Icahn School of Medicine at Mount Sinai.
Assay type: toxicity, cell-based
Conditions: human, HeLa-ACE2 cells

Cc1nn(C)cc1-c1cc2c(N[C@H](c3ccc4c(c3)S(=O)(=O)CCC4)C(C)C)ncnc2[nH]1    > 20 µM

Inquiry: What does the record list as CC50 for `CC(C)[C@@H](Nc1ncnc2[nH]c(C(N)=O)cc12)c1ccc2c(c1)OCCO2` ?
Reply text: < 0.082 µM

* * *

Test: Functional metabolic assay to measure dose dependent changes in cell viability from drug treatment in HeLa-ACE2 cells. Hela-ACE2 cells are seeded prior to drug treatment, then incubated in MTT (3-[4,5-dimethylthiazol-2-yl]-2,5- diphenyltetrazolium bromide) labelling reagent and SDS. Absorbance is measured at 560 and 750 nm and analyzed by Gen5 software. The assay has been performed by Icahn School of Medicine at Mount Sinai.
Type: toxicity, cell-based
Settings: human, hela-ace2
Collected CC10 values appear next to each entry.

Inquiry: What does the record list as CC10 for `CNC(=O)Cn1cc(-c2cc3c(N[C@@H](c4ccc5c(c4)S(=O)(=O)CCC5)C(C)C)ncnc3[nH]2)cn1` ?
Reply text: > 20 µM

Inquiry: What does the record list as CC10 for `CC(C)[C@H](Nc1ncnc2[nH]ccc12)c1ccc2c(c1)S(=O)(=O)CCC2` ?
Reply text: > 20 µM

Inquiry: What does the record list as CC10 for `CCNC(=O)c1cc2c(N[C@@H](c3ccc4c(c3)S(=O)(=O)NCC4)C(C)C)ncnc2[nH]1` ?
Reply text: > 20 µM

Inquiry: What does the record list as CC10 for `CC(C)[C@@H](Nc1ncnc2[nH]c(-c3cnn(CC(=O)N(C)C)c3)cc12)c1ccc2c(c1)OCCO2` ?
Reply text: > 20 µM

Inquiry: What does the record list as CC10 for `CC(C)[C@@H](Nc1ncnc2[nH]c(-c3cnn(C)c3C#N)cc12)c1ccc2c(n1)NC(=O)CO2` ?
Reply text: > 20 µM

Inquiry: What does the record list as CC10 for `CC(C)[C@H](Nc1ncnc2[nH]c(-c3cnn(C)c3C#N)cc12)c1ccc2c(c1)S(=O)(=O)CCC2` ?
Reply text: > 20 µM

Inquiry: What does the record list as CC10 for `CNC(=O)c1c[nH]c2ncnc(N[C@H](c3ccc4c(c3)S(=O)(=O)CCC4)C(C)C)c12` ?
Reply text: > 20 µM

Inquiry: What does the record list as CC10 for `Cc1nn(C)cc1-c1cc2c(N[C@H](c3ccc4c(c3)S(=O)(=O)CCC4)C(C)C)ncnc2[nH]1` ?
Reply text: > 20 µM

Inquiry: What does the record list as CC10 for `CNC(=O)c1cccc(-c2cc3c(N[C@H](c4ccc5c(c4)S(=O)(=O)CCC5)C(C)C)ncnc3[nH]2)c1` ?
Reply text: > 20 µM

* * *

Collected CC50 values appear next to each entry.
Assay: Functional metabolic assay to measure dose dependent changes in cell viability from drug treatment in iPSC-Pneumocyte cells. The cells are seeded then incubated in MTT (3-[4,5-dimethylthiazol-2-yl]-2,5- diphenyltetrazolium bromide) labeling reagent and SDS. Absorbance is measured at 560 and 750 nm and analyzed by Gen5 software. The assay has been performed by Icahn School of Medicine at Mount Sinai.
Format: toxicity, cell-based
Conditions: human, iPSC-Pneumocyte cells

Cc1ncc(-c2cc3c(N[C@@H](c4ccc5c(c4)OCCO5)C(C)C)ncnc3[nH]2)cn1    > 50 µM
CC(C)[C@@H](Nc1ncnc2[nH]c(-c3cnn(C)n3)cc12)c1ccc2c(c1)OCCO2    < 0.206 µM
CC(C)[C@@H](Nc1ncnc2[nH]c(-c3cnn(CC(N)=O)c3)cc12)c1ccc2c(n1)OCCO2    > 50 µM
CC(C)[C@@H](Nc1ncnc2[nH]ccc12)c1ccc2c(c1)NC(=O)CO2    > 50 µM
CC(C)[C@@H](Nc1ncnc2[nH]c(C(=O)N[C@H]3CCN(C)C3)cc12)c1ccc2c(c1)S(=O)(=O)CCC2    > 50 µM

Inquiry: What does the record list as CC50 for `Cn1ncc(-c2cc3c(N[C@@H](c4ccc5c(c4)OCCO5)C(C)(C)C)ncnc3[nH]2)c1C#N` ?
Reply text: 48.6 µM

Inquiry: What does the record list as CC50 for `CC(C)[C@H](Nc1ncnc2[nH]c(-c3cnn(CC(N)=O)c3)cc12)c1ccc2c(c1)S(=O)(=O)CCC2` ?
Reply text: > 50 µM

Inquiry: What does the record list as CC50 for `CC(C)[C@@H](Nc1ncnc2[nH]c(-c3cnn(CC(N)=O)c3)cc12)c1ccc2c(c1)OCCO2` ?
Reply text: > 50 µM

* * *

Assay: Functional metabolic assay to measure dose dependent changes in cell viability from drug treatment in HeLa-ACE2 cells. Hela-ACE2 cells are seeded prior to drug treatment, then incubated in MTT (3-[4,5-dimethylthiazol-2-yl]-2,5- diphenyltetrazolium bromide) labelling reagent and SDS. Absorbance is measured at 560 and 750 nm and analyzed by Gen5 software. The assay has been performed by Icahn School of Medicine at Mount Sinai.
Type: toxicity, cell-based
Conditions: human, hela-ace2
Collected CC10 values appear next to each entry.

Answered examples (8):
CC(C)[C@@H](Nc1ncnc2[nH]c(-c3cnn(CC(N)=O)c3)cc12)c1ccc2c(c1)S(=O)(=O)CCC2    > 20 µM
CC(C)[C@@H](Nc1ncnc2[nH]c(-c3cnn(CC(N)=O)c3)cc12)c1ccc2c(c1)OCCO2    > 50 µM
CC(C)[C@@H](Nc1ncnc2[nH]cc(C(=O)NC3CC3)c12)c1ccc2c(c1)S(=O)(=O)CCC2    > 20 µM
Cc1ncc(-c2cc3c(N[C@@H](c4ccc5c(c4)OCCO5)C(C)C)ncnc3[nH]2)cn1    > 20 µM
CC(C)[C@@H](Nc1ncnc2[nH]ccc12)c1ccc2c(c1)NC(=O)CO2    > 50 µM
CC(C)[C@H](Nc1ncnc2[nH]c(-c3cnn(C)c3C#N)cc12)c1ccc2c(c1)NC(=O)CO2    > 20 µM
CC(C)[C@H](Nc1ncnc2[nH]c(-c3cnn(C)c3)cc12)c1ccc2c(c1)S(=O)(=O)CCC2    > 20 µM
CNCc1cc(-c2cc3c(N[C@H](c4ccc5c(c4)S(=O)(=O)CCC5)C(C)C)ncnc3[nH]2)co1    > 20 µM

Inquiry: What does the record list as CC10 for `CC(C)[C@@H](Nc1ncnc2[nH]c(-c3cnn(C)c3)cc12)c1ccc2c(c1)S(=O)(=O)NCC2` ?
Reply text: > 20 µM

Inquiry: What does the record list as CC10 for `CC(C)[C@H](Nc1ncnc2[nH]c(-c3cnn(CC(N)=O)c3)cc12)c1ccc2c(c1)S(=O)(=O)CCC2` ?
Reply text: > 20 µM

Inquiry: What does the record list as CC10 for `CNC(=O)c1cccc(-c2cc3c(N[C@@H](c4ccc5c(c4)S(=O)(=O)CCC5)C(C)C)ncnc3[nH]2)c1` ?
Reply text: > 20 µM

Inquiry: What does the record list as CC10 for `CC(C)[C@@H](Nc1ncnc2[nH]c(-c3cnn(C)c3C#N)cc12)c1ccc2c(c1)OCCO2` ?
Reply text: > 50 µM

Inquiry: What does the record list as CC10 for `CCNC(=O)c1cc2c(N[C@@H](c3ccc4c(c3)S(=O)(=O)CCO4)C(C)C)ncnc2[nH]1` ?
Reply text: > 20 µM

Inquiry: What does the record list as CC10 for `CC(C)[C@@H](Nc1ncnc2[nH]c(-c3cncc(S(C)(=O)=O)c3)cc12)c1ccc2c(c1)S(=O)(=O)CCC2` ?
Reply text: > 20 µM

Inquiry: What does the record list as CC10 for `CNC(=O)c1cc2c(N[C@@H](c3ccc4c(c3)S(=O)(=O)CCC4)C(C)C)ncnc2[nH]1` ?
Reply text: > 20 µM

Inquiry: What does the record list as CC10 for `C[C@@H](C(=O)O)[C@H](NC(=O)c1ncnc2[nH]ccc12)c1ccc(Br)cc1` ?
Reply text: > 20 µM

Inquiry: What does the record list as CC10 for `CC(C)[C@@H](Nc1ncnc2[nH]c(-c3ccc4cncn4c3)cc12)c1ccc2c(c1)S(=O)(=O)CCC2` ?
Reply text: > 20 µM

* * *

Test: Functional metabolic assay to measure dose dependent changes in cell viability from drug treatment in HeLa-ACE2 cells. Hela-ACE2 cells are seeded prior to drug treatment, then incubated in MTT (3-[4,5-dimethylthiazol-2-yl]-2,5- diphenyltetrazolium bromide) labelling reagent and SDS. Absorbance is measured at 560 and 750 nm and analyzed by Gen5 software. The assay has been performed by Icahn School of Medicine at Mount Sinai.
Type: toxicity, cell-based
Details: human, hela-ace2
Collected CC50 values appear next to each entry.

CC(C)[C@@H](Nc1ncnc2[nH]c(-c3cnn(C)c3C#N)cc12)c1ccc2c(n1)OCCO2    > 50 µM
Cn1ncc(-c2cc3c(N[C@@H](c4ccc5c(n4)OCCO5)C(C)(C)C)ncnc3[nH]2)c1C#N    > 20 µM
CC(C)[C@H](Nc1ncnc2[nH]c(-c3cnn(C)c3C#N)cc12)c1ccc2c(n1)OCCO2    12.5 µM

Inquiry: What does the record list as CC50 for `CC(C)[C@@H](Nc1ncnc2[nH]ccc12)c1ccc2c(c1)S(=O)(=O)CCC2` ?
Reply text: > 50 µM

FYI, the data here is from ChEMBL document CHEMBL5441451.
